Origin of values: paper PMC8556085

Tested on: Pseudomonas aeruginosa ATCC27853
Test: Broth microdilution MIC/MMC
Format: cell-based
Settings: Pseudomonas aeruginosa ATCC27853
Collected MMC/MIC values appear next to each entry.
Give your answer as a number; write no unit.

Name the reported MMC/MIC value associated with the molecule COc1ccc(-c2coc3cc(OC4OC(CO)C(O)C(O)C4O)cc(O)c3c2=O)cc1 (stereo not shown) 2

====

Tested on: methicillin-resistant Staphylococcus aureus 04 (MRSA04)
Assay: Broth microdilution MIC/MMC
Assay type: cell-based
Settings: Staphylococcus aureus; MRSA04
MEASURE NAME: MBC (µg/mL)
Field: numeric (µg/mL). Do not append units.

[
  {
    "MOLECULE": "O=c1cc(-c2ccc(O)c(O)c2)oc2cc(O)cc(O)c12",
    "MEASURED": 64
  },
  {
    "MOLECULE": "COc1ccc(-c2coc3cc(O)cc(O)c3c2=O)cc1",
    "MEASURED": 128
  },
  {
    "MOLECULE": "Cc1onc(-c2ccccc2)c1C(=O)N[C@@H]1C(=O)N2[C@@H]1SC(C)(C)[C@@H]2C(=O)O [oxacillin, reference compound]",
    "MEASURED": 8
  },
  {
    "MOLECULE": "O=c1cc(-c2ccc(O[C@@H]3O[C@H](CO)[C@@H](O)[C@H](O)[C@H]3O)c(O)c2)oc2cc(O)cc(O)c12 [compound 4, luteolin-4′-O-β-D-glucopyranoside]",
    "MEASURED": 128
  }
]

Now take the following molecule into account.
Name the reported MBC value associated with the molecule COc1ccc(-c2coc3cc(O)ccc3c2=O)cc1 256

====

Assay: Gallic acid equivalent antioxidant capacity (GEAC) assay
Details: ABTS radical, 420 nm, 240 s; mean ± SD
Marks after values point to notes of the source that are not given here.
Collected Gallic acid equivalent antioxidant capacity (GEAC) values appear next to each entry.

[
  {
    "COMPOUND": "COc1ccc(-c2coc3cc(OC4OC(CO)C(O)C(O)C4O)cc(O)c3c2=O)cc1 (stereo not drawn)",
    "MEASURED": "72.96 ± 1.54^i μg/mL"
  },
  {
    "COMPOUND": "COc1ccc(-c2coc3cc(O[C@@H]4O[C@H](CO)[C@@H](O)[C@H](O)[C@H]4O)ccc3c2=O)cc1",
    "MEASURED": "57.43 ± 0.97^j μg/mL"
  },
  {
    "COMPOUND": "O=c1cc(-c2ccc(O)c(O)c2)oc2cc(O)cc(O)c12",
    "MEASURED": "68.30 ± 0.71^f μg/mL"
  }
]

Name the reported Gallic acid equivalent antioxidant capacity (GEAC) value associated with the compound O=c1cc(-c2ccc(O[C@@H]3O[C@H](CO)[C@@H](O)[C@H](O)[C@H]3O)c(O)c2)oc2cc(O)cc(O)c12 [compound 4, luteolin-4′-O-β-D-glucopyranoside] 118.71 ± 0.19^g μg/mL

Name the reported Gallic acid equivalent antioxidant capacity (GEAC) value associated with the compound COc1ccc(-c2coc3cc(O)ccc3c2=O)cc1 77.91 ± 0.59^e μg/mL

Name the reported Gallic acid equivalent antioxidant capacity (GEAC) value associated with the compound COc1ccc(-c2coc3cc(O)cc(O)c3c2=O)cc1 101.77 ± 1.24^d μg/mL

====

System: Staphylococcus aureus ATCC25923
Assay: Broth microdilution MIC/MMC
Format: cell-based
Conditions: Staphylococcus aureus ATCC25923, 24 h, 37°C; read-out: MIC
MEASURE NAME: MIC (µg/mL)
Field: numeric (µg/mL). Do not append units.

[
  {
    "MOLECULE": "CC1(C)CC(O)C2(C)CCC3(C)C(=CCC4C5(C)CCC(OC6OC(C(=O)O)C(O)C(O)C6O)C(C)(CO)C5CCC43C)C2C1 (stereo not shown) [compound 10]",
    "UNIT SYMBOL": "µg/mL",
    "MIC": 256
  },
  {
    "MOLECULE": "O=c1cc(-c2ccc(O[C@@H]3O[C@H](CO)[C@@H](O)[C@H](O)[C@H]3O)c(O)c2)oc2cc(O)cc(O)c12 [compound 4, luteolin-4′-O-β-D-glucopyranoside]",
    "UNIT SYMBOL": "µg/mL",
    "MIC": 32
  },
  {
    "MOLECULE": "COc1ccc(-c2coc3cc(O)cc(O)c3c2=O)cc1 [compound 1, biochanin A]",
    "UNIT SYMBOL": "µg/mL",
    "MIC": 32
  },
  {
    "MOLECULE": "COc1ccc(-c2coc3cc(O[C@@H]4O[C@H](CO)[C@@H](O)[C@H](O)[C@H]4O)ccc3c2=O)cc1 [compound 8, ononin]",
    "UNIT SYMBOL": "µg/mL",
    "MIC": 64
  },
  {
    "MOLECULE": "COc1ccc(-c2coc3cc(O)ccc3c2=O)cc1 [compound 2, formononetin]",
    "UNIT SYMBOL": "µg/mL",
    "MIC": 64
  }
]

Now take the following molecule into account.
Name the reported MIC value associated with the molecule O=c1cc(-c2ccc(O)c(O)c2)oc2cc(O)cc(O)c12 [compound 3, luteolin] 32

====

Collected MIC values appear next to each entry.
Test system: methicillin-resistant Staphylococcus aureus 03 (MRSA03)
Test: Broth microdilution MIC/MMC
Type: cell-based
Details: Staphylococcus aureus; MRSA03, 24 h, 37°C; read-out: MIC
Field: numeric (µg/mL). Do not append units.

[
  {
    "COMPOUND": "COc1ccc(-c2coc3cc(O)cc(O)c3c2=O)cc1",
    "MIC, µg/mL": 64
  }
]

Query for methicillin-resistant Staphylococcus aureus 03 (MRSA03): what MIC does the record show for O=c1cc(-c2ccc(O[C@@H]3O[C@H](CO)[C@@H](O)[C@H](O)[C@H]3O)c(O)c2)oc2cc(O)cc(O)c12 [compound 4, luteolin-4′-O-β-D-glucopyranoside] ? 64

Query for methicillin-resistant Staphylococcus aureus 03 (MRSA03): what MIC does the record show for Cc1onc(-c2ccccc2)c1C(=O)N[C@@H]1C(=O)N2[C@@H]1SC(C)(C)[C@@H]2C(=O)O [oxacillin, reference compound] ? 4

Query for methicillin-resistant Staphylococcus aureus 03 (MRSA03): what MIC does the record show for O=c1cc(-c2ccc(O)c(O)c2)oc2cc(O)cc(O)c12 ? 16

Query for methicillin-resistant Staphylococcus aureus 03 (MRSA03): what MIC does the record show for COc1ccc(-c2coc3cc(O)ccc3c2=O)cc1 ? 128

Query for methicillin-resistant Staphylococcus aureus 03 (MRSA03): what MIC does the record show for COc1ccc(-c2coc3cc(O[C@@H]4O[C@H](CO)[C@@H](O)[C@H](O)[C@H]4O)ccc3c2=O)cc1 ? 256

Query for methicillin-resistant Staphylococcus aureus 03 (MRSA03): what MIC does the record show for COc1ccc(-c2coc3cc(OC4OC(CO)C(O)C(O)C4O)cc(O)c3c2=O)cc1 (stereo not shown) ? 256

====

Collected MIC values appear next to each entry.
Tested on: Staphylococcus aureus ATCC25923
Assay: Broth microdilution MIC/MMC
Assay type: cell-based
Settings: Staphylococcus aureus ATCC25923, 24 h, 37°C; read-out: MIC
Field: numeric (µg/mL). Do not append units.

[
  {
    "COMPOUND": "OC[C@@H](O)[C@@H](O)[C@H](O)[C@H](O)CO",
    "TARGET ENTITY": "Staphylococcus aureus ATCC25923",
    "UNIT SYMBOL": "µg/mL",
    "MIC": 128
  },
  {
    "COMPOUND": "COc1ccc(-c2coc3cc(OC4OC(CO)C(O)C(O)C4O)cc(O)c3c2=O)cc1 (stereo not drawn)",
    "TARGET ENTITY": "Staphylococcus aureus ATCC25923",
    "UNIT SYMBOL": "µg/mL",
    "MIC": 64
  }
]

Now take the following compound into account.
Name the reported MIC value associated with the compound Cc1onc(-c2ccccc2)c1C(=O)N[C@@H]1C(=O)N2[C@@H]1SC(C)(C)[C@@H]2C(=O)O [oxacillin, reference compound] 1

====

Collected MBC values appear next to each entry.
System: methicillin-resistant Staphylococcus aureus 03 (MRSA03)
Assay: Broth microdilution MIC/MMC
Type: cell-based
Details: Staphylococcus aureus; MRSA03

Use the examples below as a reference point.
[
  {
    "COMPOUND": "COc1ccc(-c2coc3cc(O[C@@H]4O[C@H](CO)[C@@H](O)[C@H](O)[C@H]4O)ccc3c2=O)cc1",
    "TARGET ENTITY": "methicillin-resistant Staphylococcus aureus 03 (MRSA03)",
    "MEASURE NAME": "MBC",
    "MEASURED": "> 256 µg/mL"
  },
  {
    "COMPOUND": "O=c1cc(-c2ccc(O[C@@H]3O[C@H](CO)[C@@H](O)[C@H](O)[C@H]3O)c(O)c2)oc2cc(O)cc(O)c12 [compound 4, luteolin-4′-O-β-D-glucopyranoside]",
    "TARGET ENTITY": "methicillin-resistant Staphylococcus aureus 03 (MRSA03)",
    "MEASURE NAME": "MBC",
    "MEASURED": "128 µg/mL"
  }
]

Name the reported MBC value associated with the compound CO[C@@H]1O[C@H](CO)[C@@H](O)[C@H](O)[C@H]1O [compound 7, 1-methyl-β-D-glucopyranoside] > 256 µg/mL

Name the reported MBC value associated with the compound COc1ccc(-c2coc3cc(O)cc(O)c3c2=O)cc1 128 µg/mL

Name the reported MBC value associated with the compound OC[C@@H](O)[C@@H](O)[C@H](O)[C@H](O)CO > 256 µg/mL

Name the reported MBC value associated with the compound Cc1onc(-c2ccccc2)c1C(=O)N[C@@H]1C(=O)N2[C@@H]1SC(C)(C)[C@@H]2C(=O)O [oxacillin, reference compound] 8 µg/mL

Name the reported MBC value associated with the compound CC1(C)CC(O)C2(C)CCC3(C)C(=CCC4C5(C)CCC(OC6OC(C(=O)O)C(O)C(O)C6O)C(C)(CO)C5CCC43C)C2C1 (stereo not shown) > 256 µg/mL

Name the reported MBC value associated with the compound O=c1cc(-c2ccc(O)c(O)c2)oc2cc(O)cc(O)c12 16 µg/mL

Name the reported MBC value associated with the compound COc1ccc(-c2coc3cc(OC4OC(CO)C(O)C(O)C4O)cc(O)c3c2=O)cc1 (stereo not shown) > 256 µg/mL

Name the reported MBC value associated with the compound COc1ccc(-c2coc3cc(O)ccc3c2=O)cc1 256 µg/mL
